Hey, just so you know, these numbers are from ChEMBL document CHEMBL4219102.

molecular target: Low-density lipoprotein receptor-related protein 5 (Homo sapiens) (UniProt O75197); test: Inhibition of sclerostin binding to human ALP-fused LRP5 at 50 uM using […] pretreated for 2 hrs followed by substrate addition measured after 25 mins by ELISA relative to control
Sequence (O75197 whole entry, the tested form may be a part): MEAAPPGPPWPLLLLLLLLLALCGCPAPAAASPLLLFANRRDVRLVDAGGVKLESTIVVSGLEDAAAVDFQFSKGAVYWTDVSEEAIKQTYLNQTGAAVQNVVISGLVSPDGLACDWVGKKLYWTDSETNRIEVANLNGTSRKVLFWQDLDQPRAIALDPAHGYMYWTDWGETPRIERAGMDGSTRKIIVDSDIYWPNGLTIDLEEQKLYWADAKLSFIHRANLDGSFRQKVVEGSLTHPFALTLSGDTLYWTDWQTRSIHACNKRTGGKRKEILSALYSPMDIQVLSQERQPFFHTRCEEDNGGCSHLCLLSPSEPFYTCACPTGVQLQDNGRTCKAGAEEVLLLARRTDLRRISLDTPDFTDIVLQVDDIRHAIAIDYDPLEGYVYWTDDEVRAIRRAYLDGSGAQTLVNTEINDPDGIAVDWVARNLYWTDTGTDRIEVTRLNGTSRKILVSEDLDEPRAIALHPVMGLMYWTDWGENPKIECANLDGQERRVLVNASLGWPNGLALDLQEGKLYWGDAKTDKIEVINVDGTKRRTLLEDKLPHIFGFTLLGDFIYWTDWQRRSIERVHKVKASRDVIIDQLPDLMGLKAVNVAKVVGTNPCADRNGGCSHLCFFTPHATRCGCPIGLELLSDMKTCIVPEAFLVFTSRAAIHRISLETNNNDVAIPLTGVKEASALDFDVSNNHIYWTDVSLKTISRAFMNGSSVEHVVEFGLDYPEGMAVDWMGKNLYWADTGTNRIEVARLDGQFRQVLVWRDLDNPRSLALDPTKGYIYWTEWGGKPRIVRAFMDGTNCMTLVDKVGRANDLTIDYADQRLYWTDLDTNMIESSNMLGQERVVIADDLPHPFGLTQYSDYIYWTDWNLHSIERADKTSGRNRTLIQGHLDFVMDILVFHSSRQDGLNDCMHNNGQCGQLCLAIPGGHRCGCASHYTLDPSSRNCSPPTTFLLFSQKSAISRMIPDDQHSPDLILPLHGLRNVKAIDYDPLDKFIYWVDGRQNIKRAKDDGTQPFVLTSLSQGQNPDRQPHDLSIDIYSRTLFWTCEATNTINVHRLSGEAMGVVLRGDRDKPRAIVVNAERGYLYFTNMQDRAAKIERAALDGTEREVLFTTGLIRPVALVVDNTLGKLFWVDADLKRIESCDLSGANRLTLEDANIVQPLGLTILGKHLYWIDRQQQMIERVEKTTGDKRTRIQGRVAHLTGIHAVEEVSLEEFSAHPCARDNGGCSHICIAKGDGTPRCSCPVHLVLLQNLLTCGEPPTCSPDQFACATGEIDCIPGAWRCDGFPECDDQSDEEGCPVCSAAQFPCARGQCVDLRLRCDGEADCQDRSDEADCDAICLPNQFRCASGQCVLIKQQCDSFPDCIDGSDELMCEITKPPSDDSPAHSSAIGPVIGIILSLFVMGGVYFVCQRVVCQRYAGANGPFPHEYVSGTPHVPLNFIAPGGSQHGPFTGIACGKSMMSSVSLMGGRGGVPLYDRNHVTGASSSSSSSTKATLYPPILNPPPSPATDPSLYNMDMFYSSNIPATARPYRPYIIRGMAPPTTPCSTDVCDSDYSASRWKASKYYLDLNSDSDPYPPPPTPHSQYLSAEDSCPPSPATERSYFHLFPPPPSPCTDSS
Measured inhibition by item
Kindly provide the numeric value in % only, without the unit symbol.

Example compounds with recorded inhibition:
1. CC(=O)Nc1ccc(S(=O)(=O)Nc2nc3ccccc3nc2Nc2cccc(C(F)(F)F)c2)cc1 :: 45
2. CC(=O)Nc1ccc(S(=O)(=O)Nc2nc3ccccc3nc2Nc2ccccc2)cc1 :: 87.6
3. CC(=O)Nc1ccc(S(=O)(=O)Nc2nc3ccccc3nc2NCCO)cc1 :: 104
4. CC(=O)Nc1ccc(S(=O)(=O)Nc2nc3ccccc3nc2Nc2cccc(S(N)(=O)=O)c2)cc1 :: 62.2

Moving on to another compound below.
Ask: Kindly indicate its recorded inhibition. Item: CC(=O)Nc1ccc(S(=O)(=O)Nc2nc3ccccc3nc2Nc2cccc3ccccc23)cc1
Reply: 16.6
